Listed next: entries and their corresponding % INHIB.
System: human apolipoprotein B mRNA
Assay Info: Inhibition of human apolipoprotein B mRNA levels in HepG2 cells, quantitative real-time PCR
Type: cell-based
Reported Conditions: HepG2 cells; human apolipoprotein B mRNA; oligonucleotides targeting genomic sequence SEQ ID NO 334; averages from two experiments
In the oligonucleotide strings, read from the 5' end, every base follows the letter of its sugar. An asterisk marks phosphorothioate; unmarked linkages are phosphodiester. Other units and linkages are bracketed, terminal groups are in braces. A string of capitals states the bases alone. e = 2'-O-(2-methoxyethyl) (MOE); [5mC] = 5-methylcytosine; d = 2'-deoxy (DNA)
Give a bare numeral; the unit % is implied.

301200 (antisense eT*eT*eG*eA*eA*dT*dG*dA*d[5mC]*dA*d[5mC]*dT*dA*dG*dA*eT*eT*eT*eT*e[5mC]) [compound 301200] :: 37
301156 (eT*e[5mC]*eT*eT*eT*d[5mC]*dA*dA*dA*d[5mC]*dT*dG*dG*d[5mC]*dT*eA*eG*eG*e[5mC]*eA; antisense) [compound 301156] :: 39
301208 (antisense eT*eG*eG*eT*eA*dT*dT*dT*dA*d[5mC]*d[5mC]*dT*dG*dA*dG*eG*eG*e[5mC]*eT*eG) [compound 301208] :: 21
301164 (antisense eG*e[5mC]*eT*eT*eT*d[5mC]*dG*d[5mC]*dA*dG*d[5mC]*dT*dG*dG*dG*e[5mC]*eA*eT*eG*e[5mC]) [compound 301164] :: 55
301128 (e[5mC]*e[5mC]*eT*e[5mC]*e[5mC]*dT*dG*dG*dT*d[5mC]*d[5mC]*dT*dG*d[5mC]*dA*eG*eT*e[5mC]*eA*eA; antisense) [compound 301128] :: 56

Q. Which % INHIB value is on record for 301112 (antisense eG*eG*eA*eA*eA*d[5mC]*dT*d[5mC]*dA*d[5mC]*dT*dT*dG*dT*dT*eG*eA*e[5mC]*e[5mC]*eG) [compound 301112] ?
A. 25

Q. // % INHIB lookup, key: 301138 (eT*eT*eG*e[5mC]*eT*dA*dG*d[5mC]*dT*dT*d[5mC]*dA*dA*dA*dG*eT*eG*eG*eA*eA; antisense) [compound 301138]
A. 44

Q. I'd like to know its % INHIB. The substance in question is 301193 (antisense eA*eG*e[5mC]*eT*e[5mC]*dA*dT*dT*dG*d[5mC]*d[5mC]*dT*dA*d[5mC]*dA*eA*eA*eA*eT*eG) [compound 301193]
A. 31

Data provenance is patent US7803930B2.
